I'd be grateful if you could share measured CCR5 signalling (%) (% of Emax of PSC-RANTES) for these entries.
biological target: CCR5 (UniProt P51681); test: cell-based or functional assay
Reply with just the number.

Recorded CCR5 signalling (%) (% of Emax of PSC-RANTES) (binder RANTES derivative: signature sequence SEQ ID NO: 21 fused to positions 10-68 of native RANTES (SEQ ID NO: 1) (ligand) QGPPGDWLQVCCFAYIARPLPRAHIKEYFYTSGKCSNPAVVFVTRKNRQVCANPEKKWVREYINSLEMS ): 14.2

Recorded CCR5 signalling (%) (% of Emax of PSC-RANTES) (binder RANTES derivative: signature sequence SEQ ID NO: 7 fused to positions 10-68 of native RANTES (SEQ ID NO: 1) (ligand) QGPPLMWTQVCCFAYIARPLPRAHIKEYFYTSGKCSNPAVVFVTRKNRQVCANPEKKWVREYINSLEMS ): 0.7

Recorded CCR5 signalling (%) (% of Emax of PSC-RANTES) (binder RANTES derivative: signature sequence SEQ ID NO: 61 fused to positions 10-68 of native RANTES (SEQ ID NO: 1) (ligand) QGPPLQWMQVCCFAYIARPLPRAHIKEYFYTSGKCSNPAVVFVTRKNRQVCANPEKKWVREYINSLEMS ): 12.7

Recorded CCR5 signalling (%) (% of Emax of PSC-RANTES) (binder RANTES derivative: signature sequence SEQ ID NO: 34 fused to positions 10-68 of native RANTES (SEQ ID NO: 1) (ligand) QGPPLSWQQSCCFAYIARPLPRAHIKEYFYTSGKCSNPAVVFVTRKNRQVCANPEKKWVREYINSLEMS ): 5.1

Recorded CCR5 signalling (%) (% of Emax of PSC-RANTES) (binder RANTES derivative: signature sequence SEQ ID NO: 5 fused to positions 10-68 of native RANTES (SEQ ID NO: 1) (ligand) QGPPLMWTQSCCFAYIARPLPRAHIKEYFYTSGKCSNPAVVFVTRKNRQVCANPEKKWVREYINSLEMS ): 5.3

Recorded CCR5 signalling (%) (% of Emax of PSC-RANTES) (binder RANTES derivative: signature sequence SEQ ID NO: 32 fused to positions 10-68 of native RANTES (SEQ ID NO: 1) (ligand) QGPPGQWSQVCCFAYIARPLPRAHIKEYFYTSGKCSNPAVVFVTRKNRQVCANPEKKWVREYINSLEMS ): 6

Recorded CCR5 signalling (%) (% of Emax of PSC-RANTES) (binder RANTES derivative: signature sequence SEQ ID NO: 55 fused to positions 10-68 of native RANTES (SEQ ID NO: 1) (ligand) QGPPGSWSQVCCFAYIARPLPRAHIKEYFYTSGKCSNPAVVFVTRKNRQVCANPEKKWVREYINSLEMS ): 7.3

Recorded CCR5 signalling (%) (% of Emax of PSC-RANTES) (binder RANTES derivative: signature sequence SEQ ID NO: 40 fused to positions 10-68 of native RANTES (SEQ ID NO: 1) (ligand) QGPPMSWSQSCCFAYIARPLPRAHIKEYFYTSGKCSNPAVVFVTRKNRQVCANPEKKWVREYINSLEMS ): 0

Recorded CCR5 signalling (%) (% of Emax of PSC-RANTES) (binder RANTES derivative: signature sequence SEQ ID NO: 44 fused to positions 10-68 of native RANTES (SEQ ID NO: 1) (ligand) QGPPLMSLAVCCFAYIARPLPRAHIKEYFYTSGKCSNPAVVFVTRKNRQVCANPEKKWVREYINSLEMS ): 68.5

Recorded CCR5 signalling (%) (% of Emax of PSC-RANTES) (binder RANTES derivative: signature sequence SEQ ID NO: 24 fused to positions 10-68 of native RANTES (SEQ ID NO: 1) (ligand) QGPPLMSLQVCCFAYIARPLPRAHIKEYFYTSGKCSNPAVVFVTRKNRQVCANPEKKWVREYINSLEMS ): 2.4
